- studyTarget: EPHB2 (UniProt P29323)
- Sequence (P29323 whole entry, looked up): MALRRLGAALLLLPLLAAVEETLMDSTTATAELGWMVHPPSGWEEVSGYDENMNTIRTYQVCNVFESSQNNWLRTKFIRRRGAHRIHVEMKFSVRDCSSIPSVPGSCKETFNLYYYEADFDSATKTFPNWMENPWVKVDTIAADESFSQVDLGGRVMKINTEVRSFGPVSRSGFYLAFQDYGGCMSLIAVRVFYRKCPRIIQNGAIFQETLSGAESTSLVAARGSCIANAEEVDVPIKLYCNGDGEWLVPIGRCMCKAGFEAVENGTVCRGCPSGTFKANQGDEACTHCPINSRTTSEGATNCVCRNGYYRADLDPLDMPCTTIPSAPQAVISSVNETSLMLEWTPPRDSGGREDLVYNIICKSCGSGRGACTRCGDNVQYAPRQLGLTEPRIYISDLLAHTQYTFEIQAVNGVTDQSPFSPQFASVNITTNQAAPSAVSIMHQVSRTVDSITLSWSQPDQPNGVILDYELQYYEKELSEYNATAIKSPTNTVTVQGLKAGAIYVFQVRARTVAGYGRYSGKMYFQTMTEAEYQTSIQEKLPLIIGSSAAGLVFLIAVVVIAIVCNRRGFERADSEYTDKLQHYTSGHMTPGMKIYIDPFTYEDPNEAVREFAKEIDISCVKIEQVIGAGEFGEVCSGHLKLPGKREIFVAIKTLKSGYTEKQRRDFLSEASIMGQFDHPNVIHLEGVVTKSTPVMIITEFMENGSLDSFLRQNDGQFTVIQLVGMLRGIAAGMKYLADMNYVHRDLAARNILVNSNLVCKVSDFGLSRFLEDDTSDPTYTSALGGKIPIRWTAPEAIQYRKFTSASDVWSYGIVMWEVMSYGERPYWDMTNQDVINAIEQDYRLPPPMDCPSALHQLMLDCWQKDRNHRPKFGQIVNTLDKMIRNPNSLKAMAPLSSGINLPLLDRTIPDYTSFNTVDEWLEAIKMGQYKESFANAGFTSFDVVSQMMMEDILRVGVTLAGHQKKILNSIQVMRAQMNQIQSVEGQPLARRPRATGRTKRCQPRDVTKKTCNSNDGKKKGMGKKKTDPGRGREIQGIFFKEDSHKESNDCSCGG
- assayComment: phosphorylation enrichment, bacterial display (enrichment ratio); higher = better substrate or ligand; peptides without Tyr show the background;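 further: 11-residue human phosphosite peptides and single-mutation variants displayed on the E. coli surface, counted by deep sequencing, each peptide's frequency after selection divided by its frequency in the unselected input library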;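 further: frequency after pTyr selection over input frequency; kinase dosed for 20-30% of maximal phosphorylation in three min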
measuredQuantity: phosphorylation enrichment
Give the figure by itself; no unit, no explanation.

Below, each entry is followed by its recorded phosphorylation enrichment result.
- MTFMFYRENLR [NLRP14_Y443_V441M_YF]: 0.724
- QDGFSYPSRQM [LDLR_Y847_YF]: 0.479
- PGPPGYCDSSH [COL12A1_Y3043_Q3048H]: 0.514
- ISKKIYDPIHD [CTNNA3_Y614_T616P]: 0.475
- IRTGIYHGGEP [PIK3CA_Y361_V356I]: 0.428
- AVLALHNSTRD [TGFB1_Y81_Y81H]: 0.323
- LNRAGYCDALE [MTUS1_Y151_C148R]: 0.988
- PAIFTYDEFKK [COL8A2_Y648_T645I_YF]: 0.359

phosphorylation enrichment reported for this sequence AKLKDYYIFNK [CCDC42_Y149] : 0.594

----------
- Test system: c-Src
- assayComment: phosphorylation enrichment, bacterial display (enrichment ratio); higher = better substrate or ligand; peptides without Tyr show the background
Rule: T for phosphorylation enrichment not less than 0.5, F for anything less.

Solved cases (5 shown):
• FQKDVYDIPPS [NEDD9_Y177_YF] = T
• NKHTTYTMEHI [ACTN1_Y708_N707T] = F
• VVKTVYSLQPP [KNSTRN_Y87] = T
• EPSLDYMVTKI [CPS1_Y768] = T
• SKNFTYIWWLN [PSG4_Y271_YF] = F

Answer whether phosphorylation enrichment of AHAGGYGAEAL [HBA1_Y25_E24G] is greater than or equal to 0.5.
F

Answer whether phosphorylation enrichment of PVLSLYASGRT [ACTA1_Y145_A140P] is greater than or equal to 0.5.
T

----------
- studyTarget: MERTK (UniProt Q12866)
- Sequence (Q12866 whole entry, looked up): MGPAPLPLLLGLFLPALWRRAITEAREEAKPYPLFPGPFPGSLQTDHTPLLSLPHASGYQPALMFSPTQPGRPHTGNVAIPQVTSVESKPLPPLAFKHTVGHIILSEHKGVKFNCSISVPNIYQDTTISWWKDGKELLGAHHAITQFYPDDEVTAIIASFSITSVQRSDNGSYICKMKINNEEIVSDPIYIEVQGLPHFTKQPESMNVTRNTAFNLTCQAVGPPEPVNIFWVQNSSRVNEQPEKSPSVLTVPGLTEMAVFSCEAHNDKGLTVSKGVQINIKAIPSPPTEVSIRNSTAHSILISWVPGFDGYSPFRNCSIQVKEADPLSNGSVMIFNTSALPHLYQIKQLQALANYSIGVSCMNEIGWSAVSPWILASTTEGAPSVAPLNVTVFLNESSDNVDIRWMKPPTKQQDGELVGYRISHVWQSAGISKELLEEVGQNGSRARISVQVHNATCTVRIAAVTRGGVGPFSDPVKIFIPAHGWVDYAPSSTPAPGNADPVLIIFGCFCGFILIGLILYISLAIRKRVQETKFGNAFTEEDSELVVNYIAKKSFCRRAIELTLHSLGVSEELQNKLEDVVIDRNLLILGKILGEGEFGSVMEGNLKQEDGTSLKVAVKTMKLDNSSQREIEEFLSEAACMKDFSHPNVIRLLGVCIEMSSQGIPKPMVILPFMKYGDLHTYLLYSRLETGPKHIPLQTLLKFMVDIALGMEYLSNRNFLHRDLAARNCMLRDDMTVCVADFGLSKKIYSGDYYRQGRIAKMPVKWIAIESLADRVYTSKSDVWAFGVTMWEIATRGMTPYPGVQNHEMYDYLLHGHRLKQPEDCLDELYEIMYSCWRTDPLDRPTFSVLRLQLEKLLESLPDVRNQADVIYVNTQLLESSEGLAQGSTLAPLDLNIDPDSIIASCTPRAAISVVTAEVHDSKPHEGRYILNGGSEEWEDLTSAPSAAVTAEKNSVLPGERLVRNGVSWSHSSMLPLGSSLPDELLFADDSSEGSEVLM
- assayComment: phosphorylation enrichment, bacterial display (enrichment ratio); higher = better substrate or ligand; peptides without Tyr show the background
Collected phosphorylation enrichment values appear next to each entry.
Give the figure by itself; no unit, no explanation.

Below, each entry is followed by its recorded phosphorylation enrichment result.
* FTFTSYFMHWV [IGHV1-46_Y51_YF] | 0.391
* EELLHYAIVTP [POC5_Y37] | 5.76
* GLALRYLSDHS [VWF_Y1584] | 0.38

Now consider a different sequence.
phosphorylation enrichment reported for this sequence VGTKRYVAPEV [ACVRL1_Y375_M376V] : 0.422

----------
Collected phosphorylation enrichment values appear next to each entry.
- studyTarget: Fyn (UniProt P06241)
- Sequence (P06241 whole entry, looked up): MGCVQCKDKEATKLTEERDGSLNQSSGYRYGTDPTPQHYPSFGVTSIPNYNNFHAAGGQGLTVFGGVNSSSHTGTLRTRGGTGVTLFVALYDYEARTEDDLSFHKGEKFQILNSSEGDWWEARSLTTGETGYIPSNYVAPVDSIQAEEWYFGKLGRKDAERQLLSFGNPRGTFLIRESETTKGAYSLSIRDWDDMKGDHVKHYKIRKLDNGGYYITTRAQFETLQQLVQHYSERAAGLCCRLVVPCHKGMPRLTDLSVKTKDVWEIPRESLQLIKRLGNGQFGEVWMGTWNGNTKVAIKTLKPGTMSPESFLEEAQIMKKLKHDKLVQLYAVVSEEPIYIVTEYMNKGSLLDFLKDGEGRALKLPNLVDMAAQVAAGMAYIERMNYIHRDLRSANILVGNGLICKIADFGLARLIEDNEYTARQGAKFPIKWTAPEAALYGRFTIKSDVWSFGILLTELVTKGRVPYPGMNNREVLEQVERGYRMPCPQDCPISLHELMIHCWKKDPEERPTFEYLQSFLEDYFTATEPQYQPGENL
- assayComment: phosphorylation enrichment, bacterial display (enrichment ratio); higher = better substrate or ligand; peptides without Tyr show the background

Below, each entry is followed by its recorded phosphorylation enrichment result.
- KRLKDYLTVLQ [USP25_Y425]: 0.349
- MEFLPYGSLRD [JAK2_Y934_YF]: 1.64
- FVFSFYHAFSG [ACTN4_Y265_S262F_YF]: 0.505
- QEKKGYFEDRC [GLUL_Y336_R341C]: 0.609
- DHLASYLDKVR [KRT10_Y160_R156H]: 0.406
- GRRNTYYASIA [ACADM_Y352]: 0.532
- SSSGAYGGGYG [KRT19_Y61]: 0.359
- ISKKIYDPIHD [CTNNA3_Y614_T616P]: 0.636
- LTTPTFGDLNH [TUBB_Y222_Y222F]: 0.378
- SQSKGYRPKLY [SIPA1L3_Y1376_G1371S]: 0.344

phosphorylation enrichment reported for this sequence ACCLLYRGDVV [TUBA4A_Y319] : 0.565

phosphorylation enrichment reported for this sequence STTIHYNFMCN [TP53_Y234_C229S_YF] : 0.493

phosphorylation enrichment reported for this sequence ARVANYQRDGP [CAT_Y386] : 0.436

phosphorylation enrichment reported for this sequence LYRYGYANTSE [SI_Y1233_C1229Y] : 0.383

phosphorylation enrichment reported for this sequence LPVHFYSHVEH [PYGM_Y204_G205S] : 0.689

----------
- Tested on: c-Abl (mouse)
- assayComment: phosphorylation enrichment, bacterial display (enrichment ratio); higher = better substrate or ligand; peptides without Tyr show the background
measuredQuantity: phosphorylation enrichment
Give the figure by itself; no unit, no explanation.

* SDPIIYTLENI [ADGRE1_Y534] | 0.653

phosphorylation enrichment reported for this sequence KIPGRYYETGS [PAX2_Y72_L69P] : 0.689

phosphorylation enrichment reported for this sequence NKVKFYIPYMN [NCR1_Y84_D87Y] : 0.609

phosphorylation enrichment reported for this sequence EDKSIYRRGAC [PRKCI_Y125_R130C] : 0.474

phosphorylation enrichment reported for this sequence YSIAQYCCRMG [LRRK2_Y2023_G2019S] : 5.03

phosphorylation enrichment reported for this sequence QGGRCYMMIVD [GAA_Y438_R437C] : 1.81

phosphorylation enrichment reported for this sequence VEKEKYVSYIS [JMJD1C_Y596_M591V] : 0.698

phosphorylation enrichment reported for this sequence DGTIVYTGLET [USH2A_Y4487] : 0.764

phosphorylation enrichment reported for this sequence GCRSKSVGLWG [KCNQ1_Y184_Y184S] : 0.477

----------
- studyTarget: EPHB1 (UniProt P54762)
- Sequence (P54762 whole entry, looked up): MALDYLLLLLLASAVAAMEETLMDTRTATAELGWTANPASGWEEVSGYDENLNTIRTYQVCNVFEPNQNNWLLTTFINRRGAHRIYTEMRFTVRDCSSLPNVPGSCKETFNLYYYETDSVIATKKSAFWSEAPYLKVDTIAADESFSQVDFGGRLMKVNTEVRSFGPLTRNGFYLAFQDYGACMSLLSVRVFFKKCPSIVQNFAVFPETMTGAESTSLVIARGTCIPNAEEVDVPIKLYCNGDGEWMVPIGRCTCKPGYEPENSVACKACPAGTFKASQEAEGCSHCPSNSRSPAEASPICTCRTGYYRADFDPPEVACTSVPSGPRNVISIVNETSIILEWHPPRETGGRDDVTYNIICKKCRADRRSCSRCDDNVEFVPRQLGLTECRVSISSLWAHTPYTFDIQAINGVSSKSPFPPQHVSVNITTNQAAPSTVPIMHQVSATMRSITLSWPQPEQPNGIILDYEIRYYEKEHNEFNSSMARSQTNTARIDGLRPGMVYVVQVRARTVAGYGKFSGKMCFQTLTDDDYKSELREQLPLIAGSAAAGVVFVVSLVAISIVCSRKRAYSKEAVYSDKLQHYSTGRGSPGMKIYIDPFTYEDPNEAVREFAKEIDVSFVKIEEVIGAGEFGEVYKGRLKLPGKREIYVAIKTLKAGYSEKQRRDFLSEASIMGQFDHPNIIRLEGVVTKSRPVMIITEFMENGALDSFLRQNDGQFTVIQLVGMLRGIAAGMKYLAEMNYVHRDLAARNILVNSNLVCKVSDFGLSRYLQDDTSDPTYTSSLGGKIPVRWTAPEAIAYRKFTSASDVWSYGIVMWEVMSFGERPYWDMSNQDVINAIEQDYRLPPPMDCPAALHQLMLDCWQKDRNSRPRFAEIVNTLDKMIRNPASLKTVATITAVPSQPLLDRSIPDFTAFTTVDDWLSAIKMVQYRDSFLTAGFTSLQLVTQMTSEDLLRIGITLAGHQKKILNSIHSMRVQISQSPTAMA
- assayComment: phosphorylation enrichment, bacterial display (enrichment ratio); higher = better substrate or ligand; peptides without Tyr show the background
measuredQuantity: phosphorylation enrichment
Give the figure by itself; no unit, no explanation.

- KSSDVYVSYDY [SORL1_Y136]: 1.38

Now consider a different sequence.
phosphorylation enrichment reported for this sequence PLTRSYIREKV [CYP2C8_Y243_A238P] : 0.276

----------
- studyTarget: MERTK (UniProt Q12866)
- assayComment: phosphorylation enrichment, bacterial display (enrichment ratio); higher = better substrate or ligand; peptides without Tyr show the background
Rule: Condition met for phosphorylation enrichment not less than 0.6, Condition not met for anything less.

Solved cases (3 shown):
• SYCYRYRCAAQ [SUMF1_Y344_R349Q] = Condition not met
• RQLEIYRASRP [ERCC4_Y594] = Condition not met
• LGRTVYADCLA [ABCA4_Y2063_L2060R] = Condition met

Answer whether phosphorylation enrichment of VMAALYGRLFE [BTD_Y536_T532M_YF] is greater than or equal to 0.6.
Condition met

Answer whether phosphorylation enrichment of VFSSDYFSFVL [USP24_Y2138_YF] is greater than or equal to 0.6.
Condition met

Answer whether phosphorylation enrichment of RQNRFYDAKVR [FKBP6_Y188] is greater than or equal to 0.6.
Condition met

Answer whether phosphorylation enrichment of LQLLGDRPVYS [CHST6_Y358_Y358D] is greater than or equal to 0.6.
Condition met

Answer whether phosphorylation enrichment of PFVFFYSFLLK [PTEN_Y178_R173P_YF] is greater than or equal to 0.6.
Condition met

Answer whether phosphorylation enrichment of EHLNRYINDTF [TTLL10_Y446_S448N] is greater than or equal to 0.6.
Condition not met

Answer whether phosphorylation enrichment of DTQNSYRCATS [TSC1_Y304_G305R] is greater than or equal to 0.6.
Condition not met

Answer whether phosphorylation enrichment of FGVTLYPNSGE [MEP1A_Y472_R476G] is greater than or equal to 0.6.
Condition not met

Answer whether phosphorylation enrichment of TLMNAYSSCSH [KIF11_Y231_R234C] is greater than or equal to 0.6.
Condition not met

Answer whether phosphorylation enrichment of GSQERDFELVE [TSC2_Y407_Y407D] is greater than or equal to 0.6.
Condition not met

Answer whether phosphorylation enrichment of DAHFTYSRYPW [LY75_Y888_D884A] is greater than or equal to 0.6.
Condition met

Answer whether phosphorylation enrichment of KNKELYSDLFD [PDE10A_Y300] is greater than or equal to 0.6.
Condition met

Answer whether phosphorylation enrichment of YLRTGYSVPYG [TGM1_Y370] is greater than or equal to 0.6.
Condition met

Answer whether phosphorylation enrichment of SSREGYVRHHN [FAM83B_Y433_S435R] is greater than or equal to 0.6.
Condition not met

Answer whether phosphorylation enrichment of SYTDPYAQPPL [KMT2D_Y2378] is greater than or equal to 0.6.
Condition not met

Answer whether phosphorylation enrichment of SLFNGYVFSGV [NEIL3_Y71_YF] is greater than or equal to 0.6.
Condition not met

Answer whether phosphorylation enrichment of RRESPYGGGGG [FUS_Y526_R524S] is greater than or equal to 0.6.
Condition not met

Answer whether phosphorylation enrichment of STTIHYNFMCN [TP53_Y234_C229S_YF] is greater than or equal to 0.6.
Condition not met
